Target: IgG receptor FcRn large subunit p51 (Homo sapiens, UniProt P55899)
Sequence (P55899 whole entry): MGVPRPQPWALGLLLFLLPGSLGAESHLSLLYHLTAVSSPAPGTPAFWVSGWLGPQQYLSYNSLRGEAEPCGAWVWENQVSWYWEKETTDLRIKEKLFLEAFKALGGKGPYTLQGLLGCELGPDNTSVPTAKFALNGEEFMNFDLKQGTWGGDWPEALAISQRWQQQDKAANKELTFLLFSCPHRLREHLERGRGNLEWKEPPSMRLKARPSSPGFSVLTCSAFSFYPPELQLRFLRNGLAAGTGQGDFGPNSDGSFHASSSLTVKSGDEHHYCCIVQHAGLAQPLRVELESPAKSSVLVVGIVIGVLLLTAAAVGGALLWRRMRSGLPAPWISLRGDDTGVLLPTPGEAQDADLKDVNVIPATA
Assay: Binding affinity to human FcRn at pH 6 by surface plasmon resonance assay
Peptide text beside a SMILES is read from it.
Answer each item with its documented Kd.

CC(C)C[C@H](NC(=O)CNC(=O)CNC(=O)[C@H](Cc1ccccc1)NC(=O)[C@H](Cc1cnc[nH]1)NC(=O)CNC(=O)[C@@H](NC(=O)[C@H](CS)NC(=O)[C@H](Cc1ccccc1)NC(=O)[C@H](CCCNC(=N)N)NC(=O)[C@@H](N)CCC(N)=O)[C@@H](C)O)C(=O)N[C@@H](C)C(=O)N1CCC[C@H]1C(=O)N[C@@H](CS)C(=O)N[C@@H](CC(N)=O)C(=O)NCC(=O)N1CCC[C@H]1C(=O)O (H-QRFCTGHFGGLAPCNGP-OH) has a reported Kd of > 250000 nM

Record `CC(C)C[C@@H](C(=O)N[C@@H](Cc1ccc(O)cc1)C(=O)N1CCC[C@H]1C(=O)N[C@@H](CS)C(=O)O)N(C)C(=O)CN(C)C(=O)CNC(=O)[C@H](Cc1ccccc1)NC(=O)[C@H](Cc1ccc(N=C(N)N)cc1)NC(=O)CNC(=O)[C@@H](NC(=O)[C@@H](NC(=O)[C@H](Cc1ccccc1)NC(=O)[C@@H](N)CCCN=C(N)N)C(C)(C)S)[C@@H](C)O` , field Kd: 74 nM

---

Biological target: IgG receptor FcRn large subunit p51 (Homo sapiens)
Test: Inhibition of human IgG binding to soluble human FcRn by ELISA
parameterMeasured: IC50 (µM)
Field: numeric (µM). Do not append units.

`CC(C)C[C@H](NC(=O)CNC(=O)[C@@H](CCCN=C(N)N)NC(=O)[C@H](Cc1ccccc1)NC(=O)[C@H](Cc1cnc[nH]1)NC(=O)CNC(=O)[C@@H](NC(=O)[C@@H](NC(=O)[C@H](Cc1ccccc1)NC(=O)[C@H](CCCN=C(N)N)NC(=O)[C@@H](N)CCC(N)=O)C(C)(C)S)[C@@H](C)O)C(=O)N[C@@H](Cc1ccc(O)cc1)C(=O)N1CCC[C@H]1C(=O)N[C@@H](CS)C(=O)N[C@@H](CC(N)=O)C(=O)NCC(=O)N1CCC[C@H]1C(=O)O` yielded IC50 of 4.1

For reference, reported IC50 for `CC(C)C[C@H](NC(=O)[C@H]1CCCN1C(=O)CNC(=O)[C@H](Cc1ccccc1)NC(=O)[C@H](Cc1cnc[nH]1)NC(=O)CNC(=O)[C@@H](NC(=O)[C@@H](NC(=O)[C@H](Cc1ccccc1)NC(=O)[C@H](CCCNC(=N)N)NC(=O)[C@@H](N)CCC(N)=O)C(C)(C)S)[C@@H](C)O)C(=O)N[C@@H](Cc1ccc(O)cc1)C(=O)N1CCC[C@H]1C(=O)N[C@@H](CS)C(=O)N[C@@H](CC(N)=O)C(=O)NCC(=O)N1CCC[C@H]1C(=O)O` stands at 1.4

Entry `CC(C)C[C@H](NC(=O)C(C)(C)NC(=O)CNC(=O)[C@H](Cc1ccccc1)NC(=O)[C@H](Cc1cnc[nH]1)NC(=O)CNC(=O)[C@@H](NC(=O)[C@@H](NC(=O)[C@H](Cc1ccccc1)NC(=O)[C@H](CCCNC(=N)N)NC(=O)[C@@H](N)CCC(N)=O)C(C)(C)S)[C@@H](C)O)C(=O)N[C@@H](Cc1ccc(O)cc1)C(=O)N1CCC[C@H]1C(=O)N[C@@H](CS)C(=O)N[C@@H](CC(N)=O)C(=O)NCC(=O)N1CCC[C@H]1C(=O)O` , IC50 reported as 2.4

Please fill in: IC50 reported for `CC(C)C[C@H](NC(=O)CN1CCCC[C@@H](NC(=O)[C@H](Cc2ccccc2)NC(=O)[C@H](Cc2cnc[nH]2)NC(=O)CNC(=O)[C@@H](NC(=O)[C@@H](NC(=O)[C@H](Cc2ccccc2)NC(=O)[C@@H](N)CCCN=C(N)N)C(C)C)[C@@H](C)O)C1=O)C(=O)N[C@@H](Cc1ccc(O)cc1)C(=O)N1CCC[C@H]1C(=O)N[C@@H](C)C(=O)O` = 23

Data provenance: ChEMBL document CHEMBL1150419
